Assay: NCI Yeast Anticancer Drug Screen. Data for the wt1 strain (AID 149)
Details: S. cerevisiae wt1 strain (SPY 50644) growth inhibition; at 33.0 µM; hits give high values
This is part of a sample that, as a whole, favours compounds with a hit. Of some 79,000 tested, about 15% had one in any assay.
Please enter Y where growth inhibition is greater than or equal to 40%, and N where it is lower.

# check: growth inhibition of CC1(C)CC(=O)C(/C=N/c2nc(-c3ccc(Br)cc3)cs2)=C(O)C1 is greater than or equal to 40%
Y

Same lookup for CCCCCCC=C(C(=O)OCC)C(=O)OCC , please.
N

What do we get for C1=CCN([B-](c2ccccc2)[C+]2CCCCC2)C=C1 ?
Y

Next molecule: c1ccc2c(c1)N=C1CCCC3CCCC123 (stereo not drawn)
N

Same again, this time with CC(C(=O)N1C(=O)N(C(=O)C(C)C(O)c2ccccc2)C2CCCCC21)C(O)c1ccccc1 (stereo not drawn)
N

And then O=C(CCSC1=NCCCN1)c1ccc(F)cc1 , what is it?
N

Consider next the molecule O=S(=O)(c1ccccc1)N1CN2CN(C1)CN(S(=O)(=O)c1ccccc1)C2 in the same way.
N

Ok, now O=c1cccccc1[O-].O=c1cccccc1[O-].O=c1cccccc1[O-].[Eu+3]
Y

Subsequent entry: CCC1(O)C(=O)OCc2c1cc1n(c2=O)Cc2cc3c(N)cccc3nc2-1 (stereo not drawn)
N

Would you kindly repeat that for Cc1ccc(S(=O)(=O)Nc2cccc3cccnc23)cc1 ?
Y

Please do the same for CNC(=O)OCc1c(COC(=O)NC)c(C)n(-c2ccc(Br)cc2)c1C as well.
N

Again, but for COc1ccc(-c2cc(-c3cc(C)cc(Cl)c3O)nc3[nH]c(=S)[nH]c(=S)c23)cc1
N

Next molecule: O=C(c1ccccc1)[C@H]1Nc2ccc(Cl)cc2[C@H]2OCCC[C@@H]12
N

Lookup CC(/C=C/c1ccc([N+](=O)[O-])o1)=N/N1CC(CN2CCOCC2)OC1=O (stereo not drawn)
Y

Okay, and O=C(Nc1ccc(Cl)cc1)c1cc2cc(N=Nc3ccccc3Cl)ccc2oc1=O ?
Y

Same question for CC(C)OP(=O)(OC(C)C)/C(Cl)=N/Nc1ccc([N+](=O)[O-])cc1 please.
N

Next: CN(C)CCCn1c2c3ccccc3ccc2c2oc(=O)c3ccccc3c21
Y

Follow-up item: CNCC(C)CNC
N

Query CC(C)(N=Nc1ccc(Cl)cc1)[N+](=O)[O-] next
Y

And the next one, CCCCCCCCCC(=O)N(CCC)CCC ?
Y

Subsequent entry: COc1cc2c(cc1O)[C@H](C)C(c1ccccc1OC)O2 (stereo partly drawn)
N

Follow-up entry: COc1ccc(C(=O)/C=C\c2ccc(Cl)c(Cl)c2)cc1
Y

# repeat for C[n+]1c(-c2ccc(/C=N/NC(=O)c3ccc(C(=O)N/N=C/c4ccc(-c5cn6ccccc6[n+]5C)cc4)cc3)cc2)cn2ccccc21
N
